Target: T1, human bradykinin B1 receptor (human, UniProt P46663 1-353)
T1 construct: whole, on cells; Assays were run on cell membrane preparations (50 ug/well), not on intact cells; HEK293T::GFP::hB1R membranes appear only in the saturation assay; also called hB1R; BDKRB1
T1 sequence (looked up): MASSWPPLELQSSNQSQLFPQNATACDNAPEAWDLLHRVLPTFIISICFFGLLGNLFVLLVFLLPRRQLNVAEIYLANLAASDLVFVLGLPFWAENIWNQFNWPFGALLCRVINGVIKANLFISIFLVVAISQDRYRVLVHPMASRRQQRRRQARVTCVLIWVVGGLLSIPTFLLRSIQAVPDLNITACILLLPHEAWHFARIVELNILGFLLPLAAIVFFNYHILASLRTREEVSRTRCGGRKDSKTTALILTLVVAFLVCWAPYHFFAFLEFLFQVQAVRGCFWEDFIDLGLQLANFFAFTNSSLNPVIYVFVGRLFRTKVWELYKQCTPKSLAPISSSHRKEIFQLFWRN
Experiment: average Ki of the competitive radioligand binding assays on hB1R membranes
Where no end group is shown, it is not given here. [ ]: non-standard residue; d: D form. The star is where a group is joined. DOTA = O=C(O)CN1CCN(CC(=O)O)CCN(CC(=O)*)CCN(CC(=O)O)CC1; Hyp = O=C(O)[C@@H]1C[C@@H](O)CN1; Cha = N[C@@H](CC1CCCCC1)C(=O)O; Ahx = NCCCCCC(=O)O
Experimental endpoint: Ki (nM)

Some entries whose results are on file:
Binder	Recorded number
KRPXGXSPL (N-terminal Ga-DOTA-Ahx-; Hyp at position 4; Cha at position 6) [Peptide 10: Ga-DOTA-Ahx-Lys-Arg-Pro-Hyp-Gly-Cha-Ser-Pro-Leu]	27.8
KRPXGXSPF (N-terminal D-Pra-Ahx- (D-propargylglycine, 6-aminohexanoic acid); Hyp (hydroxyproline) at position 4; Cha (beta-cyclohexylalanine) at position 6; D-Phe at position 9, Agonist-derived probe) [Peptide 1: D-Pra-Ahx-Lys-Arg-Pro-Hyp-Gly-Cha-Ser-Pro-(D-Phe)]	32.2
KRPXGXSPL (N-terminal Ga-DOTA-PEG2- (PEG2 = 3-[2-(2-aminoethoxyl)ethoxy]propanoic acid); Hyp at position 4; Cha at position 6, 68Ga-labelled in the in vivo imaging; also called Ga-68 Peptide 3) [Peptide 3: Ga-DOTA-PEG2-Lys-Arg-Pro-Hyp-Gly-Cha-Ser-Pro-Leu]	16

1: {DOTA-Ahx}-KRPPGFSPL (also: Ga complex of DOTA (natGa in assays, 68Ga in vivo), also called P03083) [Peptide 4: Ga-DOTA-Ahx-Lys-Arg-Pro-Pro-Gly-Phe-Ser-Pro-Leu]
2: KRPXGXSPF (N-terminal Ga-DOTA-Ahx-; Hyp at position 4; Cha at position 6; D-Phe at position 9, 68Ga-labelled in vivo) [Peptide 12: Ga-DOTA-Ahx-Lys-Arg-Pro-Hyp-Gly-Cha-Ser-Pro-(D-Phe)]
3: {DOTA}-GGKRP[Hyp]G[Cha]SPL (also: Ga loaded in DOTA, 68Ga-labelled in vivo) [Peptide 8: Ga-DOTA-Gly-Gly-Lys-Arg-Pro-Hyp-Gly-Cha-Ser-Pro-Leu]
# rank_down: sort by Ki, max first Provide the labels, sequenced as the question asks.
2, 3, 1
